Data credit: patent US20240261422A1

# System: Karpas299, ALCL
# experiment_description: In vitro growth inhibition (CellTiter-Glo, 96 h), Karpas299
# Format: cell-based
# run_conditions: cAC10 (anti-CD30) ADCs, average DAR 4

{"molecular_string": "COc1cccc2c1C(=O)c1c(O)c3c(c(O)c1C2=O)C[C@@](O)(C(=O)NCCNC(=O)CCN1C(=O)C=CC1=O)C[C@@H]3O[C@H]1C[C@H]2[C@H](O[C@@H]3[C@@H](OC)OCCN32)[C@H](C)O1", "IC50 (ng/mL) Karpas299, ALCL": "A (IC50<1 ng/mL)"}
{"molecular_string": "COc1cccc2c1C(=O)c1c(O)c3c(c(O)c1C2=O)C[C@@](O)(C(=O)NCCNC(=O)CNC(=O)CNC(=O)CNC(=O)OCc1ccc(NC(=O)[C@H](C)NC(=O)[C@@H](NC(=O)CCN2C(=O)C=CC2=O)C(C)C)cc1)C[C@@H]3O[C@H]1C[C@H]2[C@H](O[C@@H]3[C@@H](OC)OCCN32)[C@H](C)O1", "IC50 (ng/mL) Karpas299, ALCL": "A (IC50<1 ng/mL)"}
{"molecular_string": "COc1cccc2c1C(=O)c1c(O)c3c(c(O)c1C2=O)C[C@@](O)(C(=O)NCCNC(=O)CNC(=O)CNC(=O)CNC(=O)CCN1C(=O)C=CC1=O)C[C@@H]3O[C@H]1C[C@H]2[C@H](O[C@@H]3[C@@H](OC)OCCN32)[C@H](C)O1", "IC50 (ng/mL) Karpas299, ALCL": "A (IC50<1 ng/mL)"}

----------
# Test system: Ramos, CD30 − NHL
# experiment_description: In vitro growth inhibition (CellTiter-Glo, 96 h), Ramos
# Format: cell-based
# run_conditions: cAC10 (anti-CD30) ADCs, average DAR 4

{"compound": "COc1cccc2c1C(=O)c1c(O)c3c(c(O)c1C2=O)C[C@@](O)(C(=O)NCCNC(=O)CCN1C(=O)C=CC1=O)C[C@@H]3O[C@H]1C[C@H]2[C@H](O[C@@H]3[C@@H](OC)OCCN32)[C@H](C)O1 [Compound 14]", "IC50 (ng/mL) Ramos, CD30 − NHL": "E (IC50≥500 ng/mL)"}
{"compound": "COc1cccc2c1C(=O)c1c(O)c3c(c(O)c1C2=O)C[C@@](O)(C(=O)NCCNC(=O)CNC(=O)CNC(=O)CNC(=O)OCc1ccc(NC(=O)[C@H](C)NC(=O)[C@@H](NC(=O)CCN2C(=O)C=CC2=O)C(C)C)cc1)C[C@@H]3O[C@H]1C[C@H]2[C@H](O[C@@H]3[C@@H](OC)OCCN32)[C@H](C)O1 [Compound 29]", "IC50 (ng/mL) Ramos, CD30 − NHL": "E (IC50≥500 ng/mL)"}

----------
# System: 786-O, MDR + RCC
# experiment_description: In vitro growth inhibition (CellTiter-Glo, 96 h), 786-O
# Type: cell-based
# run_conditions: cOKT9 ADCs, average DAR 8, 96 h

{"molecular_string": "COc1cccc2c1C(=O)c1c(O)c3c(c(O)c1C2=O)C[C@@](O)(C(=O)NCCOCCOCCOCCOCCNC(=O)CCN1C(=O)C=CC1=O)C[C@@H]3O[C@H]1C[C@H]2[C@H](O[C@@H]3[C@@H](OC)OCCN32)[C@H](C)O1", "IC50 (ng/mL) 786-O, MDR + RCC": "A (IC50<10 ng/mL)"}
{"molecular_string": "COc1cccc2c1C(=O)c1c(O)c3c(c(O)c1C2=O)C[C@@](O)(C(=O)NCCNC(=O)CCN1C(=O)C=CC1=O)C[C@@H]3O[C@H]1C[C@H]2[C@H](O[C@@H]3[C@@H](OC)OCCN32)[C@H](C)O1", "IC50 (ng/mL) 786-O, MDR + RCC": "A (IC50<10 ng/mL)"}

----------
# Tested on: BxPC3, PancCa
# experiment_description: In vitro growth inhibition (CellTiter-Glo, 96 h), BxPC3
# Assay type: cell-based
# run_conditions: cOKT9 ADCs, average DAR 8, 96 h
measured_quantity: IC50 (ng/mL) BxPC3, PancCa

{"molecular_string": "COc1cccc2c1C(=O)c1c(O)c3c(c(O)c1C2=O)C[C@@](O)(C(=O)NCCNC(=O)CNC(=O)CNC(=O)CNC(=O)OCc1ccc(NC(=O)[C@H](C)NC(=O)[C@@H](NC(=O)CCN2C(=O)C=CC2=O)C(C)C)cc1)C[C@@H]3O[C@H]1C[C@H]2[C@H](O[C@@H]3[C@@H](OC)OCCN32)[C@H](C)O1", "assay_result": "A (IC50<10 ng/mL)"}
{"molecular_string": "COc1cccc2c1C(=O)c1c(O)c3c(c(O)c1C2=O)C[C@@](O)(C(=O)NCCNC(=O)CCN1C(=O)C=CC1=O)C[C@@H]3O[C@H]1C[C@H]2[C@H](O[C@@H]3[C@@H](OC)OCCN32)[C@H](C)O1", "assay_result": "A (IC50<10 ng/mL)"}
{"molecular_string": "COc1cccc2c1C(=O)c1c(O)c3c(c(O)c1C2=O)C[C@@](O)(C(=O)NCCNC(=O)CNC(=O)[C@H](C)NC(=O)[C@@H](NC(=O)CCN1C(=O)C=CC1=O)C(C)C)C[C@@H]3O[C@H]1C[C@H]2[C@H](O[C@@H]3[C@@H](OC)OCCN32)[C@H](C)O1", "assay_result": "A (IC50<10 ng/mL)"}
{"molecular_string": "COc1cccc2c1C(=O)c1c(O)c3c(c(O)c1C2=O)C[C@@](O)(C(=O)NCCNC(=O)CCN1C(=O)C=CC1=O)C[C@@H]3O[C@H]1C[C@H](N2CCO[C@H](OC)C2)[C@H](O)[C@H](C)O1", "assay_result": "D (IC50≥1000 ng/mL)"}
{"molecular_string": "COc1cccc2c1C(=O)c1c(O)c3c(c(O)c1C2=O)C[C@@](O)(C(=O)NCCOCCOCCOCCOCCNC(=O)CCN1C(=O)C=CC1=O)C[C@@H]3O[C@H]1C[C@H]2[C@H](O[C@@H]3[C@@H](OC)OCCN32)[C@H](C)O1", "assay_result": "A (IC50<10 ng/mL)"}
{"molecular_string": "COc1cccc2c1C(=O)c1c(O)c3c(c(O)c1C2=O)C[C@@](O)(C(=O)NCCNC(=O)OCc1ccc(NC(=O)[C@H](C)NC(=O)[C@@H](NC(=O)CCN2C(=O)C=CC2=O)C(C)C)cc1)C[C@@H]3O[C@H]1C[C@H]2[C@H](O[C@@H]3[C@@H](OC)OCCN32)[C@H](C)O1", "assay_result": "A (IC50<10 ng/mL)"}
{"molecular_string": "COc1cccc2c1C(=O)c1c(O)c3c(c(O)c1C2=O)C[C@@](O)(C(=O)NCCNC(=O)CNC(=O)CNC(=O)CNC(=O)CCN1C(=O)C=CC1=O)C[C@@H]3O[C@H]1C[C@H](N2CCO[C@H](OC)C2)[C@H](O)[C@H](C)O1", "assay_result": "D (IC50≥1000 ng/mL)"}
{"molecular_string": "COc1cccc2c1C(=O)c1c(O)c3c(c(O)c1C2=O)C[C@@](O)(C(=O)NCCNC(=O)CNC(=O)CNC(=O)CNC(=O)CCN1C(=O)C=CC1=O)C[C@@H]3O[C@H]1C[C@H]2[C@H](O[C@@H]3[C@@H](OC)OCCN32)[C@H](C)O1", "assay_result": "A (IC50<10 ng/mL)"}
